Below are compounds with their IC50 as measured on Bovine LOX (Bos taurus (Bovine)).
Sequence (P33072 170-418): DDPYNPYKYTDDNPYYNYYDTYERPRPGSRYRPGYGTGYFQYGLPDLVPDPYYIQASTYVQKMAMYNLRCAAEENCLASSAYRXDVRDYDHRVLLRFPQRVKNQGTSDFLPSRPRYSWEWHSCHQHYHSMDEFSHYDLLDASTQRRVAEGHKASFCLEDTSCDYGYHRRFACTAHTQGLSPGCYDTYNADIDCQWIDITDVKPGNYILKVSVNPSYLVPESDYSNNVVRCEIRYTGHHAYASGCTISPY
Structures can show the parent of a compound that is named as a salt.

compound: NC/C=C(\F)CS(=O)(=O)c1cccc(Cn2cc(-c3cc(OCCCc4cn(CCCCC[C@@H]5SC[C@@H]6NC(=O)N[C@@H]65)nn4)cc(OCCCc4cn(CCCCC[C@@H]5SC[C@@H]6NC(=O)N[C@@H]65)nn4)c3)nn2)c1 [Compound 1-12, hydrochloride]
IC50: > 0.3 µM

compound: NC/C=C(\F)CS(=O)(=O)c1cccc(N(CCCc2cn(CCCCC[C@@H]3SC[C@@H]4NC(=O)N[C@@H]43)nn2)CCCc2cn(CCCCC[C@@H]3SC[C@@H]4NC(=O)N[C@@H]43)nn2)c1 [Compound 1-13, hydrochloride]
IC50: > 0.3 µM

compound: NC/C=C(\F)CS(=O)(=O)c1cccc(C(=O)NCCCCCNC(=O)CCCC[C@@H]2SC[C@@H]3NC(=O)N[C@@H]32)c1 [Compound 1-9, hydrochloride]
IC50: > 0.3 µM

compound: Cc1c(-c2cccc(S(=O)(=O)N(C)C)c2)c2cc(C(=O)Nc3cc(C(=O)NCCCCCNC(=O)CCCC[C@@H]4SC[C@@H]5NC(=O)N[C@@H]54)cc(C(=O)NCCCCCNC(=O)CCCC[C@@H]4SC[C@@H]5NC(=O)N[C@@H]54)c3)ccc2n1C/C(F)=C/CN [Compound 1-5, hydrochloride]
IC50: > 0.3 µM

compound: CN(C)S(=O)(=O)c1ccc(C(OCc2ccc(-n3cc(CNC(=O)CCCC[C@@H]4SC[C@@H]5NC(=O)N[C@@H]54)nn3)cc2)c2cn(C/C(F)=C/CN)nn2)cc1 (some centres unmarked) [Compound 1-15, hydrochloride]
IC50: < 0.3 µM

compound: Cc1c(-c2cccc(S(=O)(=O)N(C)C)c2)c2cc(C(=O)Nc3ccc4c(c3)n(CCn3cc(CCNC(=O)CCCC[C@@H]5SC[C@@H]6NC(=O)N[C@@H]65)nn3)c(=O)n4CCn3cc(CCNC(=O)CCCC[C@@H]4SC[C@@H]5NC(=O)N[C@@H]54)nn3)ccc2n1C/C(F)=C/CN [Compound 1-4, hydrochloride]
IC50: > 0.3 µM

compound: CN(C)S(=O)(=O)c1ccc(C(OCc2ccc(-n3cc(CNC(=O)CCOCCOCCOCCOCCNC(=O)CCCC[C@@H]4SC[C@@H]5NC(=O)N[C@@H]54)nn3)cc2)c2cn(C/C(F)=C/CN)nn2)cc1 (some centres unmarked) [Compound 1-16, hydrochloride]
IC50: > 0.3 µM

compound: NC/C=C(\F)CS(=O)(=O)c1cccc(OCCCc2cn(CCCCC[C@@H]3SC[C@@H]4NC(=O)N[C@@H]43)nn2)c1 [Compound 1-11, hydrochloride]
IC50: > 0.3 µM
